Values were extracted from ChEMBL document CHEMBL1944507.

# Test system: Mycobacterium tuberculosis
# assay name: Antimicrobial activity against Mycobacterium tuberculosis H37Rv ATCC 27294 harboring pFCA-lux AB gene measured under anaerobic condition after 11 days by luminescence analysis
# Assay type: functional
# measurement parameters: H37Rv ATCC 27294, 264 h
Consider the following molecules; for each one, report its MIC.

Query string: Request: MIC, test system Mycobacterium tuberculosis, entry O=C(Nc1ccc(-c2ccc(F)cc2)cc1)N[C@@H]1COc2nc([N+](=O)[O-])cn2C1
Result string: 9.1 µM

Query string: Follow-up entry: O=C(Nc1cccc(-c2ccc(F)nc2)c1)O[C@@H]1COc2nc([N+](=O)[O-])cn2C1
Result string: 5.8 µM

Query string: Follow-up entry: O=[N+]([O-])c1cn2c(n1)OC[C@@H](NS(=O)(=O)c1cccc(OC(F)(F)F)c1)C2
Result string: > 64 µM

Query string: Follow-up entry: CN(Cc1ccc(OC(F)(F)F)cc1)C1CCN(C(=O)O[C@@H]2COc3nc([N+](=O)[O-])cn3C2)CC1
Result string: 26 µM

Query string: Follow-up entry: O=C(Nc1ccc(OC(F)(F)F)cc1)O[C@@H]1COc2nc([N+](=O)[O-])cn2C1
Result string: 2.7 µM

Query string: Follow-up entry: O=C(NCc1ccc(-c2ccc(F)cc2)cc1)N[C@@H]1COc2nc([N+](=O)[O-])cn2C1
Result string: 26 µM

Query string: Follow-up entry: O=C(Cc1ccc(-c2ccc(C(F)(F)F)nc2)cc1)N[C@@H]1COc2nc([N+](=O)[O-])cn2C1
Result string: > 32 µM

Query string: Follow-up entry: O=C(Nc1cccc(-c2ccc(C(F)(F)F)cc2)c1)N[C@@H]1COc2nc([N+](=O)[O-])cn2C1
Result string: 3.6 µM

---

# System: Mycobacterium tuberculosis
# assay name: Antimicrobial activity against Mycobacterium tuberculosis H37Rv ATCC 27294 harboring pFCA-lux AB gene measured under anaerobic condition after 11 days by luminescence analysis
# Assay type: functional
# measurement parameters: H37Rv ATCC 27294, 264 h
assay readout: MIC (µM)
Provide the reading as a plain figure in µM.

Query string: Request: MIC, test system Mycobacterium tuberculosis, entry O=C(Cc1ccc(-c2ccc(C(F)(F)F)cc2)cc1)N[C@@H]1COc2nc([N+](=O)[O-])cn2C1
Result string: 23

Query string: Follow-up entry: O=C(Nc1cccc(-c2ccc(C(F)(F)F)nc2)c1)N[C@@H]1COc2nc([N+](=O)[O-])cn2C1
Result string: 13

Query string: Follow-up entry: O=C(CN[C@@H]1COc2nc([N+](=O)[O-])cn2C1)Nc1ccc(OC(F)(F)F)cc1
Result string: 46

Query string: Follow-up entry: O=C(Nc1ccc(-c2ccc(F)cc2)cc1)O[C@@H]1COc2nc([N+](=O)[O-])cn2C1
Result string: 18

Query string: Follow-up entry: O=[N+]([O-])c1cn2c(n1)OC[C@@H](OCc1cccc(OC(F)(F)F)c1)C2
Result string: 2.1

Query string: Follow-up entry: O=C(COc1ccc(-c2ccc(C(F)(F)F)nc2)cc1)N[C@@H]1COc2nc([N+](=O)[O-])cn2C1
Result string: 30

Query string: Follow-up entry: O=C(CO[C@@H]1COc2nc([N+](=O)[O-])cn2C1)Nc1ccc(OC(F)(F)F)cc1
Result string: 7.8

Query string: Follow-up entry: O=[N+]([O-])c1cn2c(n1)OC[C@@H](OCc1ccc(OC(F)(F)F)cc1)C2
Result string: 2.6

Query string: Follow-up entry: O=C(NCc1ccc(-c2ccc(OC(F)(F)F)cc2)cc1)N[C@@H]1COc2nc([N+](=O)[O-])cn2C1
Result string: 32

Query string: Follow-up entry: CN([C@@H]1COc2nc([N+](=O)[O-])cn2C1)S(=O)(=O)c1ccccc1OC(F)(F)F
Result string: 45

Query string: Follow-up entry: O=C(O[C@@H]1COc2nc([N+](=O)[O-])cn2C1)N1CC[C@H](Oc2ccc(OC(F)(F)F)cc2)C1
Result string: 1.6

Query string: Follow-up entry: O=C(Nc1ccc(-c2ccc(OC(F)(F)F)cc2)cc1)N[C@@H]1COc2nc([N+](=O)[O-])cn2C1
Result string: 18

---

Consider the following compounds; for each one, report its MIC.
# Test system: Mycobacterium tuberculosis
# assay name: Antimicrobial activity against Mycobacterium tuberculosis H37Rv ATCC 27294 harboring pFCA-lux AB gene measured under anaerobic condition after 11 days by luminescence analysis
# Type: functional
# measurement parameters: H37Rv ATCC 27294, 264 h
Provide the reading as a plain figure in µM.

Query string: # input compound: O=C(COc1ccc(-c2ccc(OC(F)(F)F)cc2)cc1)N[C@@H]1COc2nc([N+](=O)[O-])cn2C1 ; wanted: its MIC
Result string: 25

Query string: Follow-up entry: O=C(N[C@@H]1COc2nc([N+](=O)[O-])cn2C1)OCc1ccc(-c2ccc(C(F)(F)F)cc2)cc1
Result string: 4.5

Query string: Follow-up entry: O=C(Cc1ccc(OC(F)(F)F)cc1)N[C@@H]1COc2nc([N+](=O)[O-])cn2C1
Result string: 21

Query string: Follow-up entry: O=C(Nc1cccc(-c2ccc(C(F)(F)F)cc2)c1)O[C@@H]1COc2nc([N+](=O)[O-])cn2C1
Result string: 1

Query string: Follow-up entry: O=C(Nc1ccc(OC(F)(F)F)cc1)N[C@@H]1COc2nc([N+](=O)[O-])cn2C1
Result string: 4.2

Query string: Follow-up entry: O=C(Nc1cccc(-c2ccc(OC(F)(F)F)cc2)c1)N[C@@H]1COc2nc([N+](=O)[O-])cn2C1
Result string: 5.8

Query string: Follow-up entry: O=C(NCc1ccc(-c2ccc(C(F)(F)F)nc2)cc1)O[C@@H]1COc2nc([N+](=O)[O-])cn2C1
Result string: 11

Query string: Follow-up entry: CN([C@@H]1COc2nc([N+](=O)[O-])cn2C1)S(=O)(=O)c1cccc(OC(F)(F)F)c1
Result string: 64

Query string: Follow-up entry: O=C(NCc1ccc(-c2ccc(OC(F)(F)F)cc2)cc1)O[C@@H]1COc2nc([N+](=O)[O-])cn2C1
Result string: 2.4

Query string: Follow-up entry: O=C(N[C@@H]1COc2nc([N+](=O)[O-])cn2C1)OCc1ccc(OC(F)(F)F)cc1
Result string: 11

Query string: Follow-up entry: O=C(Nc1ccc(-c2ccnc(C(F)(F)F)c2)cc1)N[C@@H]1COc2nc([N+](=O)[O-])cn2C1
Result string: 13

Query string: Follow-up entry: O=C(O[C@@H]1COc2nc([N+](=O)[O-])cn2C1)N1CCN(c2ccc(OC(F)(F)F)cc2)CC1
Result string: 1.1

Query string: Follow-up entry: O=C(NCc1ccc(-c2ccc(F)cc2)cc1)O[C@@H]1COc2nc([N+](=O)[O-])cn2C1
Result string: 4.5

---

Consider the following compounds; for each one, report its MIC.
# Tested on: Mycobacterium tuberculosis
# assay name: Antimicrobial activity against Mycobacterium tuberculosis H37Rv ATCC 27294 harboring pFCA-lux AB gene measured under anaerobic condition after 11 days by luminescence analysis
# Type: functional
# measurement parameters: H37Rv ATCC 27294, 264 h
Provide the reading as a plain figure in µM.

Query string: # input compound: O=C(N[C@@H]1COc2nc([N+](=O)[O-])cn2C1)OCc1ccc(-c2ccc(OC(F)(F)F)cc2)cc1 ; wanted: its MIC
Result string: 5

Query string: Follow-up entry: O=C(Nc1ccc(-c2ccnc(C(F)(F)F)c2)cc1)O[C@@H]1COc2nc([N+](=O)[O-])cn2C1
Result string: 6.2

Query string: Follow-up entry: O=C(N[C@@H]1COc2nc([N+](=O)[O-])cn2C1)OCc1ccc(-c2ccc(C(F)(F)F)nc2)cc1
Result string: 4.7

Query string: Follow-up entry: O=C(Nc1cccc(-c2ccc(F)nc2)c1)N[C@@H]1COc2nc([N+](=O)[O-])cn2C1
Result string: 15

Query string: Follow-up entry: O=C(Nc1cccc(-c2ccc(OC(F)(F)F)cc2)c1)O[C@@H]1COc2nc([N+](=O)[O-])cn2C1
Result string: 0.85

Query string: Follow-up entry: O=[N+]([O-])c1cn2c(n1)OC[C@@H](NCc1ccc(OC(F)(F)F)cc1)C2
Result string: 5.3

---

# System: Mycobacterium tuberculosis
# assay name: Antimicrobial activity against Mycobacterium tuberculosis H37Rv ATCC 27294 harboring pFCA-lux AB gene measured under anaerobic condition after 11 days by luminescence analysis
# Format: functional
# measurement parameters: H37Rv ATCC 27294, 264 h
Criterion: MIC strictly under 4 µM. Met: yes (1). Not met: no (0).

Query string: Hello, I'm reviewing records and need to know if MIC of O=C(NCc1ccc(-c2ccc(C(F)(F)F)nc2)cc1)N[C@@H]1COc2nc([N+](=O)[O-])cn2C1 is below 4 µM. Could you check?
Result string: no (0)

Query string: Follow-up entry: O=C(Nc1cccc(-c2ccc(F)cc2)c1)O[C@@H]1COc2nc([N+](=O)[O-])cn2C1
Result string: yes (1)

Query string: Follow-up entry: O=C(N[C@@H]1COc2nc([N+](=O)[O-])cn2C1)Oc1ccc(OC(F)(F)F)cc1
Result string: no (0)

Query string: Follow-up entry: O=C(NCc1ccc(OC(F)(F)F)cc1)O[C@@H]1COc2nc([N+](=O)[O-])cn2C1
Result string: no (0)

Query string: Follow-up entry: O=C(Nc1cccc(-c2ccc(C(F)(F)F)nc2)c1)O[C@@H]1COc2nc([N+](=O)[O-])cn2C1
Result string: yes (1)

Query string: Follow-up entry: O=C(N[C@@H]1COc2nc([N+](=O)[O-])cn2C1)OCc1ccc(-c2ccc(F)nc2)cc1
Result string: no (0)
